Molecular target: furin, P09958;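 further: purified furin at 1:10 enzyme:substrate in 50 mM HEPES pH 7.5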
Sequence (P09958 whole entry): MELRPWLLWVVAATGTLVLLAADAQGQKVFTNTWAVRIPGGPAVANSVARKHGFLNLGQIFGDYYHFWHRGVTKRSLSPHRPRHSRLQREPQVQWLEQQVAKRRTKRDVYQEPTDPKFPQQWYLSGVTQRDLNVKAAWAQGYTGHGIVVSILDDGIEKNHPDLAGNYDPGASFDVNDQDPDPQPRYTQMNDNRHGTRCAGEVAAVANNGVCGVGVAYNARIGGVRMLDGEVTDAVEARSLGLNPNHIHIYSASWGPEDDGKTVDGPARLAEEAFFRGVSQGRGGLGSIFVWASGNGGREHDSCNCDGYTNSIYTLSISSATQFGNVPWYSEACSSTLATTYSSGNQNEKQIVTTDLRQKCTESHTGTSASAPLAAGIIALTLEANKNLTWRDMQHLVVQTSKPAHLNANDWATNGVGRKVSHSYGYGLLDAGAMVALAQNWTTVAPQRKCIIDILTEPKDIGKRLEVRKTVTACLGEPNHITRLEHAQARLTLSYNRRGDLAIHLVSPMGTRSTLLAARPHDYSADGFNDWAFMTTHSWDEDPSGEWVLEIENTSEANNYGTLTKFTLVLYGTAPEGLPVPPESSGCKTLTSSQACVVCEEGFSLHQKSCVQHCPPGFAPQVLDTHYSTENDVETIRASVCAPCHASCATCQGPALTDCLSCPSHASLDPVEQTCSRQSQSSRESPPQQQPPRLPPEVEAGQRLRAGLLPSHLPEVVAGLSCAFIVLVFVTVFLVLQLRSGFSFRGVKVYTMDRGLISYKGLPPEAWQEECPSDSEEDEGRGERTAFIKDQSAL
Experiment: furin cleavage Z-score vs untreated control; higher = more cleavage, active = 3.5 or more, inactive = 1 or less, 8 variable residues between constant flanks
Conditions: 7.5 min
Some of the results follow. How many sequences the whole screen found active is unknown.
Classification field: enter Y for furin cleavage Z-score values not below 3, N for values below it.

Field: example entries. Status: answers known.
CAMEECIQHLAGNASASA [HC25]	N
CAIRKRDRRGAGNASASA [FS-1016]	Y
CARQSRAPSKAGNASASA [FS-3044]	N
CAGPGREDRFAGNASASA [FS-1590]	N
CAKRERNKRSAGNASASA [FS-1637]	Y

API: above_or_equal(metric=furin cleavage Z-score, cutoff=3) for item CAVVCCSMSCAGNASASA [HC2100] N

API: above_or_equal(metric=furin cleavage Z-score, cutoff=3) for item CAASSREIRQAGNASASA [FS-1446] N

API: above_or_equal(metric=furin cleavage Z-score, cutoff=3) for item CATVGRVKRFAGNASASA [FS-306] Y

API: above_or_equal(metric=furin cleavage Z-score, cutoff=3) for item CARVRRNAKKAGNASASA [FS-1978] Y

API: above_or_equal(metric=furin cleavage Z-score, cutoff=3) for item CARVRKSLKKAGNASASA [FS-2534] N

API: above_or_equal(metric=furin cleavage Z-score, cutoff=3) for item CAVVCMSMSYAGNASASA [HC88] N

API: above_or_equal(metric=furin cleavage Z-score, cutoff=3) for item CAGPVRLKKKAGNASASA [FS-1527] N

API: above_or_equal(metric=furin cleavage Z-score, cutoff=3) for item CARRRKSLKTAGNASASA [FS-2783] N

API: above_or_equal(metric=furin cleavage Z-score, cutoff=3) for item CARRARVVWCAGNASASA [FS-1773] N

API: above_or_equal(metric=furin cleavage Z-score, cutoff=3) for item CAFCTTPCSGAGNASASA [HC1947] N
